This collection of values is drawn from PubChem BioAssay (NCATS).

# Test system: DFO2036
# Method Description: qHTS profiling for inhibitors of Plasmodium falciparum proliferation (AID 504749); note: nearly all actives have a fitted effect of over 60% in size
# Settings: P. falciparum in erythrocytes, SYBR Green DNA, 72 h; series mostly up to 28.7 µM
Records with an inconclusive call do not appear. Calls of active or inactive are those of the source. Calls come from the whole dose curve; as a rule, active = well fitted inhibition curve with a large enough effect; inconclusive = small, poorly fitted or top-dose-only effect; inactive = flat fitted curve, though single readings scatter. Numbered stars: 1 amine (or outer) side, 2 acyl side, 3 side chain; on linkers, the order of the positions; unused ones are H or OH. Bridge positions count the residues as written; N and C are the ends. Square brackets hold non-standard residues; d marks the D form. Peptide text beside a SMILES is read from it. I, II: the chains in the order shown. Actinocin(9to1) = Cc1c2oc3c(C)ccc(C(=O)[*:1])c3nc-2c(C(=O)[*:2])c(N)c1=O; NMeV = CN[C@H](C(=O)O)C(C)C; Sar = CNCC(=O)O
Mark one answer only. Choices: Y for active, N for inactive

Enquiry: In this assay, the call recorded for C[C@@H]1C(=O)NC2=Nc3cccc(Cl)c3CN21 was what?
Return: N

Enquiry: // query: N[C@@H](Cc1cnc[nH]1)C(=O)O
Return: N

Enquiry: Record: Cc1c2oc3c(C)ccc(C(=O)N[C@@H]4C(=O)N[C@H](C(C)C)C(=O)N5CCC[C@H]5C(=O)N(C)CC(=O)N(C)[C@@H](C(C)C)C(=O)O[C@@H]4C)c3nc-2c(C(=O)N[C@@H]2C(=O)N[C@H](C(C)C)C(=O)N3CCC[C@H]3C(=O)N(C)CC(=O)N(C)[C@@H](C(C)C)C(=O)O[C@@H]2C)c(N)c1=O (I: T[dV]P[Sar][NMeV] / II: T[dV]P[Sar][NMeV]; ester I:1-I:C, II:1-II:C; linker I:N-II:N via Actinocin(9to1))
Return: Y
